These measurements were taken from ChEMBL document CHEMBL5385900.

Target: Glutamate receptor ionotropic, AMPA (Rattus norvegicus) (UniProt P19491+P19492+P19493+P19490)
Assay: Positive allosteric modulation at AMPAR in rat hippocampal assessed as increase in AMPA induced noradrenaline release
Set-up: concentration or dose not given beside the values
Settings: filed as positive allosteric modulator
Measured Activity, listed per entry for reference.
Output spec: scalar in %, unitless text.

Some solved entries appear below for comparison.
Activity lookup needed for CCN1c2ccc(F)cc2S(=O)(=O)N(C)C1C (stereo unspecified) , thanks.
135

Activity lookup needed for O=S1(=O)c2cc(F)ccc2N(C2CC2)CN1CF , thanks.
427

Activity lookup needed for O=S1(=O)c2cc(Cl)ccc2N(C2CC2)CN1C(F)F , thanks.
340

New cases:
Activity lookup needed for CCN1c2ccc(Cl)cc2S(=O)(=O)N(C)C1C (stereo unspecified) , thanks.
103

Activity lookup needed for O=S1(=O)c2cc(Cl)ccc2N(C2CC2)CN1CF , thanks.
394

Activity lookup needed for O=S1(=O)c2cc(F)ccc2N(C2CC2)CN1C(F)F , thanks.
345

Activity lookup needed for O=S1(=O)NCN(C2CC2)c2ccc(Cl)cc21 , thanks.
311

Activity lookup needed for CC1N(C)c2ccc(Cl)cc2S(=O)(=O)N1C (stereo unspecified) , thanks.
112

Activity lookup needed for CC1N(C)c2ccc(F)cc2S(=O)(=O)N1C (stereo unspecified) , thanks.
167

Activity lookup needed for CC1N(C2CC2)c2ccc(Cl)cc2S(=O)(=O)N1CF (stereo unspecified) , thanks.
329

Activity lookup needed for O=S1(=O)NCN(C2CC2)c2ccc(F)cc21 , thanks.
230
